B1: tRNA (parent)
chain: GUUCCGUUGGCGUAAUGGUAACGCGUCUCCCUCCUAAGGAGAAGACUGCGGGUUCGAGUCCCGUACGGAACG

variants of: B1; test: yeast fitness relative to wild type (ratio to wild type); higher = fitter; tRNA-Arg(CCU), competitive growth, 37 C, YPD
Fewer inactive variants are shown than the library holds.
If the reported yeast fitness equals or exceeds 0.7, assign t. If not, assign f.

Recorded results for 5 variants are shown here.
G56A G67U    t
C46U G51A    t
C4U A37C G41C    f
U16A A36G A57U A70G    f
U2A C24G C31U C33G A42C A43U    f

Problem: Textbook exercise: given the entry G17C C46G G68A , state whether its yeast fitness is greater than or equal to 0.7.
Solution: f

Problem: Textbook exercise: given the entry C11G A42U A65G C66G G68A , state whether its yeast fitness is greater than or equal to 0.7.
Solution: f

Problem: Textbook exercise: given the entry C5G G17A A20C G52A A65U , state whether its yeast fitness is greater than or equal to 0.7.
Solution: f

Problem: Textbook exercise: given the entry C11U U28C C29G G67A , state whether its yeast fitness is greater than or equal to 0.7.
Solution: f

Problem: Textbook exercise: given the entry C27G A42U G48A , state whether its yeast fitness is greater than or equal to 0.7.
Solution: f

Problem: Textbook exercise: given the entry U28G G44C G48C , state whether its yeast fitness is greater than or equal to 0.7.
Solution: f

Problem: Textbook exercise: given the entry A21G G23A C66G , state whether its yeast fitness is greater than or equal to 0.7.
Solution: f
